tested on: COLO 205; test: NCI tumour cell line growth inhibition, 48 h
Activity calls are given as the source filed them. Rule as the data show it: active = GI50 up to about 1.1 µM and inactive = higher.
Outcomes: 1 (active), 0 (inactive)

molecule	target.or.system	class
O=C(CSc1nnc(Cc2ccccc2)o1)Nc1ccccc1Cl	COLO 205	0
Nc1nc(SCc2ccccc2Cl)cc(C(=O)O)n1	COLO 205	0
CCOC(=O)c1cc(C2(OC)CCN(Cc3ccccc3)C2=O)c(-c2cc(C)no2)[nH]1 (stereo not given)	COLO 205	0
CCCC1C[C@H]2CCCCN2[C@H]2CCCN12 (stereo not given in full)	COLO 205	0
COC(=O)c1ccccc1/C=C1\Cc2ccc(C)c(C)c2C1=O	COLO 205	0
CC(=O)OCC1OC(n2c(-c3ccccc3)c(C(C)=O)c(-c3cccc4ccccc34)c(C#N)c2=S)C(OC(C)=O)C(OC(C)=O)C1OC(C)=O (stereo not given)	COLO 205	0
CN(C)CCCOCCn1c2c(c3ccccc31)CCCC2	COLO 205	0
Nc1c(C(=O)O)c2ccc([N+](=O)[O-])cc2c(=O)n1-c1nc2ccccc2s1	COLO 205	0
CS(=O)(=O)Nc1ccc(Nc2c3ccccc3nc3ccccc23)cc1	COLO 205	0
Cc1ccc(S(=O)(=O)OC[C@@H]2CO2)cc1	COLO 205	0
C[Si](C)(C)OC1(C#N)C2C3CC4C2C(=O)C2C4C3C21 (stereo not given)	COLO 205	0
C=CCOc1cc2c(cc1C(C)c1ccc(OC)cc1)OCO2 (stereo not given)	COLO 205	1
Cn1c(=O)oc2nc(-c3ccccc3)cc(C(F)(F)F)c21	COLO 205	0
CC(=O)OCC(OC(C)=O)C(OC(C)=O)C(/C=N/N(C(C)=O)S(=O)(=O)c1ccc(/C=C2\NC(=O)NC2=O)cc1)OC(C)=O (stereo not given)	COLO 205	0
CC(=O)Nc1ccc(/N=C2\C(c3ccccc3)=C(SC3=C(c4ccccc4)/C(=N\c4ccc(NC(C)=O)cc4)c4ccccc43)c3ccccc32)cc1	COLO 205	0
CCOC(=O)C(C(=O)c1ccccc1)=C1NCCN1	COLO 205	0
N#Cc1c(Cl)c(C=O)c(=O)n2c1[nH]c1ccccc12	COLO 205	0
CC(=O)OC(C)(C)CCC(=O)[C@](C)(O)[C@H]1[C@H](O)C[C@@]2(C)[C@@H]3CCc4c(cc(OC5OC(CO)C(O)C(O)C5O)c(O)c4C)C3(C)C(=O)C[C@]12C (stereo not given in full)	COLO 205	0
CN1CCC(C(O)(c2ccccc2)c2ccc(Br)cc2)CC1 (stereo not given)	COLO 205	0
O=C1c2ccccc2C(=O)N1NC1=NCCN1	COLO 205	0
CN(C)CCNC(=O)c1cnn(C)c1[N+](=O)[O-]	COLO 205	0
C=C1c2nc3ccccc3n2C=C(c2ccccc2)N1c1ccc(C)cc1	COLO 205	0
CCOC(=O)c1nc2cc(C(F)(F)F)ccc2nc1Oc1ccc(C(=O)OC)cc1	COLO 205	0
CC(CO)C1C[C@H](O)[C@@]2(C)CC(=O)C=C(CO)[C@@H]2C1 (stereo not given in full)	COLO 205	0
c1nc(NCCc2c[nH]cn2)c2nc[nH]c2n1	COLO 205	0
COc1ccc(OC)c([N+](=O)[O-])c1-c1nc2sc(Cl)cn2c1/C=N/N=C(N)N	COLO 205	0
NC(=O)CCC(NCc1c2ccccc2[n+]([O-])c2ccccc12)C(=O)O (stereo not given)	COLO 205	0
CC(=O)OCCCCn1nncc1Cn1ccc(=O)n(Cc2cnnn2CCCCOC(C)=O)c1=O	COLO 205	0
CC(C)[C@](O)(C(=O)OCC1=CCN2CC[C@@H](O)[C@@H]12)[C@H](C)O	COLO 205	0
COC(=O)c1nn2ccc3ccccc3c2c1C(=O)OC	COLO 205	0
